Tested on: Streptococcus pneumoniae
Assay: Tested for inhibition of visible growth of Streptococcus pneumoniae
Assay type: functional
result-type: MIC

# molecule, MIC
data = [
    ("CC1(C)SC2C(NC(=O)[C@H](N)c3ccc4c(c3)CCO4)C(=O)N2C1C(=O)O (some centres undefined)", "≤ 0.03 mg/L"),
]

Recorded MIC (molecule CC1(C)S[C@@H]2[C@H](NC(=O)[C@H](N)c3ccc(O)cc3)C(=O)N2[C@H]1C(=O)O ): ≤ 0.03 mg/L

Recorded MIC (molecule Cc1nnc(SCC2=C(C(=O)O)N3C(=O)C(NC(=O)[C@H](N)c4ccc5c(c4)CCO5)C3SC2)s1 (some centres undefined) ): ≤ 0.03 mg/L

Recorded MIC (molecule CC1(C)SC2C(NC(=O)C(N)c3ccc4c(c3)OCO4)C(=O)N2C1C(=O)O (centres undefined) ): ≤ 0.03 mg/L

* * *

Tested on: Pseudomonas aeruginosa
Experiment: Tested for inhibition of visible growth of Pseudomonas aeruginosa
Format: functional
Overview of recorded MIC for various compounds

# compound, measurement
data = [
    ("CC1(C)S[C@@H]2[C@H](NC(=O)[C@H](N)c3ccc(O)cc3)C(=O)N2[C@H]1C(=O)O", "> 100 µg/mL"),
    ("CC1(C)SC2C(NC(=O)[C@H](N)c3ccc4c(c3)CCO4)C(=O)N2C1C(=O)O (stereo partly drawn)", "> 100 µg/mL"),
]

Here is the next item to consider.
// assay Pseudomonas aeruginosa, entry CC1(C)SC2C(NC(=O)C(N)c3ccc4c(c3)OCO4)C(=O)N2C1C(=O)O (stereo not drawn) , MIC value = > 100 µg/mL

* * *

Test system: Escherichia coli
Experiment: Tested for inhibition of visible growth of Escherichia coli
Assay type: functional
Overview of recorded MIC for various compounds
# number only, unit mg/L dropped from output

# compound, MIC / mg/L
data = [
    ("CC1=C(C(=O)O)N2C(=O)C(NC(=O)[C@H](N)c3ccc4c(c3)CCO4)C2SC1 (some centres undefined)", 50),
    ("N[C@@H](C(=O)NC1C(=O)N2C(C(=O)O)=C(CSc3c[nH]nn3)CSC12)c1ccc2c(c1)OCO2 (some centres undefined)", 12.5),
]

Here is the next item to consider.
Recorded MIC (compound Cc1nnc(SCC2=C(C(=O)O)N3C(=O)C(NC(=O)[C@H](N)c4ccc5c(c4)OCO5)C3SC2)s1 (some centres undefined) ): 12.5

* * *

System: Proteus mirabilis
Assay: Tested for inhibition of visible growth of Proteus mirabilis
Type: functional
result-type: MIC

// assay Proteus mirabilis, entry Cc1nnc(SCC2=C(C(=O)O)N3C(=O)C(NC(=O)[C@H](N)c4ccc5c(c4)OCO5)C3SC2)s1 (stereo partly drawn) , MIC value = > 100 µg/mL

// assay Proteus mirabilis, entry Cc1nnc(SCC2=C(C(=O)O)N3C(=O)C(NC(=O)[C@@H](N)c4ccc5c(c4)OCO5)C3SC2)s1 (stereo partly drawn) , MIC value = > 100 µg/mL

// assay Proteus mirabilis, entry CC1=C(C(=O)O)N2C(=O)C(NC(=O)[C@H](N)c3ccc4c(c3)OCO4)C2SC1 (stereo partly drawn) , MIC value = > 100 µg/mL

* * *

Overview of recorded MIC for various compounds
System: Klebsiella pneumoniae
Assay: Tested for inhibition of visible growth of Klebsiella pneumoniae
Type: functional

These solved cases illustrate the format of a correct answer.
# compound, MIC
data = [
    ("N[C@H](C(=O)NC1C(=O)N2C(C(=O)O)=C(CSc3c[nH]nn3)CSC12)c1ccc2c(c1)OCO2 (stereo partly drawn)", "> 50 µg/mL"),
    ("CC1=C(C(=O)O)N2C(=O)C(NC(=O)[C@@H](N)c3ccc4c(c3)OCO4)C2SC1 (stereo partly drawn)", "> 100 µg/mL"),
]

Here is the next item to consider.
Recorded MIC (compound CC1=C(C(=O)O)N2C(=O)C(NC(=O)C(N)c3cccc4c3OCO4)C2SC1 (stereo not drawn) ): > 200 µg/mL

* * *

Overview of recorded MIC for various compounds
System: Escherichia coli
Assay: Tested for inhibition of visible growth of Escherichia coli
Format: functional
# number only, unit µg/mL dropped from output

These solved cases illustrate the format of a correct answer.
# compound, target-of-assay, MIC, µg/mL
data = [
    ("NC(C(=O)NC1C(=O)N2C(C(=O)O)=C(CSc3cn[nH]n3)CS[C@H]12)c1ccc2c(c1)CCO2 (stereo partly specified)", "Escherichia coli", 12.5),
    ("CC(=O)OCC1=C(C(=O)O)N2C(=O)C(NC(=O)C(O)c3ccc4c(c3)CCO4)C2SC1 (racemic)", "Escherichia coli", 50),
]

Recorded MIC (compound CC1(C)SC2C(NC(=O)C(C(=O)O)c3ccc4c(c3)OCO4)C(=O)N2C1C(=O)O (racemic) ): 50

Recorded MIC (compound Cc1nnc(SCC2=C(C(=O)O)N3C(=O)C(NC(=O)[C@H](N)c4ccc5c(c4)CCO5)C3SC2)s1 (stereo partly specified) ): 12.5

Recorded MIC (compound CC(=O)OCC1=C(C(=O)O)N2C(=O)C(NC(=O)C(O)c3ccc4c(c3)OCO4)C2SC1 (racemic) ): 25

* * *

Overview of recorded MIC for various compounds
System: Escherichia coli
Assay: Tested for inhibition of visible growth of Escherichia coli
Type: functional

These solved cases illustrate the format of a correct answer.
# compound, measurement
measured = [
    ("CC1=C(C(=O)O)N2C(=O)C(NC(=O)C(N)c3cccc4c3OCO4)C2SC1 (stereo unspecified)", "> 200 µg/mL"),
    ("N[C@H](C(=O)NC1C(=O)N2C(C(=O)O)=C(CSc3c[nH]nn3)CSC12)c1ccc2c(c1)OCO2 (stereo partly specified)", "> 50 µg/mL"),
    ("CC1(C)SC2C(NC(=O)C(N)c3ccc4c(c3)OCO4)C(=O)N2C1C(=O)O (stereo unspecified)", "25 µg/mL"),
    ("Cc1nnc(SCC2=C(C(=O)O)N3C(=O)C(NC(=O)[C@@H](N)c4ccc5c(c4)OCO5)C3SC2)s1 (stereo partly specified)", "> 100 µg/mL"),
]

// assay Escherichia coli, entry CC(=O)OCC1=C(C(=O)O)N2C(=O)C(NC(=O)C(N)c3cccc4c3OCO4)C2SC1 (racemic) , MIC value = 100 µg/mL

// assay Escherichia coli, entry CC1=C(C(=O)O)N2C(=O)C(NC(=O)C(N)c3ccc4c(c3)CCO4)C2SC1 (racemic) , MIC value = 100 µg/mL

// assay Escherichia coli, entry CC1(C)S[C@@H]2[C@H](NC(=O)C(C(=O)O)c3ccccc3)C(=O)N2[C@H]1C(=O)O (stereo partly specified) [CARBENICILLIN] , MIC value = 6.2 µg/mL

// assay Escherichia coli, entry CC1=C(C(=O)O)N2C(=O)C(NC(=O)[C@@H](N)c3ccc4c(c3)OCO4)C2SC1 (stereo partly specified) , MIC value = > 100 µg/mL

// assay Escherichia coli, entry CC(=O)OCC1=C(C(=O)O)N2C(=O)[C@@H](NC(=O)Cc3cccs3)[C@H]2SC1 [CEPHALOTHIN] , MIC value = 12.5 µg/mL

// assay Escherichia coli, entry CC1=C(C(=O)O)N2C(=O)C(NC(=O)[C@H](N)c3ccc4c(c3)OCCO4)C2SC1 (stereo partly specified) , MIC value = > 100 µg/mL

// assay Escherichia coli, entry CC1=C(C(=O)O)N2C(=O)C(NC(=O)[C@H](N)c3ccc4c(c3)OCO4)C2SC1 (stereo partly specified) , MIC value = 25 µg/mL
